# Test system: Chordin-like protein 2 (CHRDL2)
# protocol: CHRDL2 small-molecule binders, primary screen, biochemical, small-molecule microarray, 635 nm fluorescence (AID 1126);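 further: printed compound slides probed with Chrdl2 protein at 4 µg/mL for 1 h at 4 C; score merges 667 nm emission intensity with signal to noise over three replicate slides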
# experimentalSetup: small-molecule microarray binding, fluorescence 635 nm; higher = more signal
Overview of recorded composite z-score for various molecules
// return just the number, without any unit appended

Illustrative cases are given below, each with its answer.
input: Find the recorded composite z-score belonging to `C[C@H](ON=C1[C@H]2CCn3c(=O)n(-c4ccccc4)c(=O)n3[C@H]2[C@H](O)[C@@H]2O[C@H]12)c1cn([C@H](CO)Cc2ccccc2)nn1` and report it.
output: 0.388

input: Can you handle `COC(=O)CC=C[C@@H](C)[C@@H](C=NOCC[C@@H]1C=C[C@H](OC(C)=O)[C@@H](COC(C)=O)O1)NS(=O)(=O)c1ccc(C)cc1` next?
output: 0.687

input: Can you handle `CO[C@@H]1C=CCC(=O)N2CCC[C@H]2C(=O)OC[C@@H](C)C(=O)OC[C@H]1C` next?
output: 1.05

input: Can you handle CCOC(=O)[C@H](Cc1ccccc1)NC(=O)CCC1CC(OC(=O)NCc2cccc3ccccc23)CC2(CCCC(COC(=O)NCc3ccccc3)O2)O1 (stereo not given in full) next?
output: 0.0223

input: Can you handle O=C1CCCC=C1C(CCc1ccccc1)OC(=O)c1ccc(Br)cc1 (stereo not given) next?
output: 0.388

input: Can you handle C[C@H]1CC[C@H]2C(=O)OC(CO)CN2[C@@H]1c1ccc(Br)cc1 (stereo not given in full) next?
output: 0.453

input: Can you handle `CCOC(=O)CCN1C(=O)[C@H]2[C@H]3[C@H](O)[C@H](O)CC(=NNC(=O)OCc4ccccc4)[C@@H]3CC[C@H]2C1=O` next?
output: 0.393

input: Can you handle `CC(C)=CCCC(C)=CCON=C1C[C@@H](O)[C@@H](O)[C@@H]2[C@@H]3C(=O)N(C[C@@H]4CCCO4)C(=O)[C@@H]3CC[C@H]12` next?
output: 1.3

Next:
input: Find the recorded composite z-score belonging to `CON=Cc1ccc(C(=O)N2[C@H](c3ccc(C)cc3)[C@@H](C)CC[C@H]2C(=O)OC)cc1` and report it.
output: 0.262

input: Can you handle `COC(=O)[C@@H]1CC[C@H](C)[C@@H](c2ccc(C)cc2)N1C(=O)c1ccc(C=NO[C@@H](C)c2cn([C@H](CO)Cc3ccccc3)nn2)cc1` next?
output: 0.892

input: Can you handle `C=CC[C@@H]1C=C[C@H](ON=C(C)CCC(=O)OC[C@H]2O[C@H](C#Cc3ccccc3)C=C[C@@H]2Oc2ccc(C)cc2)[C@@H](CO)O1` next?
output: 0.126

input: Can you handle `COc1ccc(COC(=O)NN=C2C[C@@H](O)[C@@H](O)[C@@H]3[C@@H]4C(=O)N(c5ccc(F)cc5F)C(=O)[C@@H]4CC[C@H]23)cc1` next?
output: -0.293

input: Can you handle `CO[C@H]1COC(=O)CC=C[C@@H](C)[C@H](NS(=O)(=O)c2ccc(C)cc2)COC(=O)CCC[C@@H]1C` next?
output: 1.23

input: Can you handle `CC(C)(C)N1C(=O)[C@H]2[C@H]3[C@H](O)[C@H](O)CC(=NO[C@@H]4O[C@H](CO)[C@@H](O)[C@H](O)[C@H]4O)[C@H]3CC[C@H]2C1=O` next?
output: 0.926

input: Can you handle COC(=O)CC=C[C@@H](C)[C@@H](C=NOC(C)CN1CCCc2nc(C)c(C)cc21)OC (stereo not given in full) next?
output: 0.377
